System: RARb homodimer (NR concentration 270 nM)
Assay: PBM binding z-score (relative to random genomic background probes); higher = stronger binding; sequences stand for … in GC…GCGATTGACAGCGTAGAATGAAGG
Give TRUE when the value for PBM binding z-score is at least 0.9. Give FALSE when it is less.

Identify whether the reported PBM binding z-score of the following sequence is 0.9 or greater: "CGTTACGGGTCACTCCAGGTTATAGCATCGGAGT"
TRUE

Identify whether the reported PBM binding z-score of the following sequence is 0.9 or greater: "CCTAGTTGGTCAGTAGGTCACACACCGGATATGA"
TRUE

Identify whether the reported PBM binding z-score of the following sequence is 0.9 or greater: "CCAGACAGGTGAAACGTAACTCAGTCTGGTACGC"
FALSE

Identify whether the reported PBM binding z-score of the following sequence is 0.9 or greater: "CGTCCAAGGTCAGCAGGACAGTGAAAGCGACGTG"
TRUE

Identify whether the reported PBM binding z-score of the following sequence is 0.9 or greater: "AGTCAAAGTTCAGGACTAGGTAACGTAAAGCACG"
TRUE

Identify whether the reported PBM binding z-score of the following sequence is 0.9 or greater: "CCTTACGGGTCACTGACAGGTTATATCATTTGGA"
TRUE

Identify whether the reported PBM binding z-score of the following sequence is 0.9 or greater: "ACAGACAGGTGAGTCAAGGTAACTCAGCTGGACG"
FALSE

Identify whether the reported PBM binding z-score of the following sequence is 0.9 or greater: "TCGAGTAGGTTAGGCGGGGCATTCAGCCAACATA"
FALSE

Identify whether the reported PBM binding z-score of the following sequence is 0.9 or greater: "GCATATAGGTAATACAAGGCGAAAGTCCGATTGT"
FALSE

Identify whether the reported PBM binding z-score of the following sequence is 0.9 or greater: "CATAAAGGGTCAGCTAGGCCAGAGTAGGGACGGC"
TRUE

src = the supplement of paper PMC6555819
